B1: Interleukin-5 receptor subunit alpha (Homo sapiens), Q01344-2 (parent)
chain: MIIVAHVLLILLGATEILQADLLPDEKISLLPPVNFTIKVTGLAQVLLQWKPNPDQEQRNVNLEYQVKINAPKEDDYETRITESKCVTILHKGFSASVRTILQNDHSLLASSWASAELHAPPGSPGTSIVNLTCTTNTTEDNYSRLRSYQVSLHCTWLVGTDAPEDTQYFLYYRYGSWTEECQEYSKDTLGRNIACWFPRTFILSKGRDWLAVLVNGSSKHSAIRPFDQLFALHAIDQINPPLNVTAEIEGTRLSIQWEKPVSAFPIHCFDYEVKIHNTRNGYLQIEKLMTNAFISIIDDLSKYDVQVRAAVSSMCREAGLWSEWSQPIYVGFSR

Variants of: B1
experimentalConditions: with il5_human IL5, P05113
Sequence (P05113 whole entry): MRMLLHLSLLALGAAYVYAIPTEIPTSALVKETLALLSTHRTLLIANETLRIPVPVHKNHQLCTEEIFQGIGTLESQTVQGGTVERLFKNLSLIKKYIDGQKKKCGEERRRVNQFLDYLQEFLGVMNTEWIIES

{"variantLabel": "I203A", "effect of a mutation on the interaction": "decreasing interaction"}
{"variantLabel": "Y77A", "effect of a mutation on the interaction": "decreasing interaction"}
{"variantLabel": "I89A", "effect of a mutation on the interaction": "decreasing interaction"}
{"variantLabel": "S84A", "effect of a mutation on the interaction": "decreasing interaction"}
{"variantLabel": "L43A", "effect of a mutation on the interaction": "disrupting interaction"}
{"variantLabel": "D228A", "effect of a mutation on the interaction": "disrupting interaction"}

This collection of values is drawn from IntAct's records for PubMed 22153509.
